Each entry below carries its recorded log10 IC50.
- System: CEM cells HIV-1 protection, formazan growth assay
- test_method_notes: NCI AIDS Antiviral Assay
- details: measured here: growth of uninfected CEM cells
Where a SMILES comes first, the peptide text is derived from it. The star is where a group is joined. Boc = CC(C)(C)OC(=O)*
Form field - Quantity: IC50; Unit: µM; Scale: log10

Observe how each entry below is paired with its result.
| molecule | target_or_test_system | log10 IC50 |
| --- | --- | --- |
| COc1ccc(C2Oc3c(cccc3OC)C=C2[N+](=O)[O-])cc1 (centres undefined) | CEM cells HIV-1 protection, formazan growth assay | 0.18 |
| O=C1c2c(O)ccc(O)c2C(=O)c2c(NCCCO)ccc(NCCCO)c21 | CEM cells HIV-1 protection, formazan growth assay | 1.27 |
| OCc1ccc2c(c1)CC1(C2)Cc2cc3c(cc2C1O)CCC3 (centres undefined) | CEM cells HIV-1 protection, formazan growth assay | 0.26 |
| CC(C)(C)OC(=O)NC(Cc1ccc(O)cc1)C(=O)NC(CCCCN)C(=O)O (stereo not drawn) (Boc-Tyr-Lys-OH; configuration not given here) | CEM cells HIV-1 protection, formazan growth assay | 1.96 |

log10 IC50 on CEM cells HIV-1 protection, formazan growth assay for "CC(=O)Oc1ccn2nc(C)c(Br)c2c1" is 1.97

log10 IC50 on CEM cells HIV-1 protection, formazan growth assay for "CCCc1cc(=O)oc2c3c(cc(OC(C)C)c12)O[C@H](C)[C@@H](C)/C3=N/O" is 0.58

log10 IC50 on CEM cells HIV-1 protection, formazan growth assay for Cc1ccc(N(C(=O)CC(=O)N2N=C(c3ccccc3)C(N=Nc3ccc([N+](=O)[O-])cc3)C2=O)C(=O)c2ccc(Cl)cc2)cc1 (centres undefined) is 0.96

log10 IC50 on CEM cells HIV-1 protection, formazan growth assay for "CCc1[nH]nc(-c2ccc(OC)cc2)c1-c1ccccc1O" is 1.32

log10 IC50 on CEM cells HIV-1 protection, formazan growth assay for COC(Cc1ccccc1)NC(=O)[C@@]12CCCC[C@@H]1C=Cc1ccccc12 (some centres undefined) is 1.36

log10 IC50 on CEM cells HIV-1 protection, formazan growth assay for "[N-]=[N+]=NI1OC(=O)c2ccccc21" is 1.74

log10 IC50 on CEM cells HIV-1 protection, formazan growth assay for "NC(=O)n1ncc(Cl)c(Cl)c1=O" is 1.68

log10 IC50 on CEM cells HIV-1 protection, formazan growth assay for "Clc1ccc2c(c1)Oc1ccccc1C=N2" is 0.80

log10 IC50 on CEM cells HIV-1 protection, formazan growth assay for CCC1c2ccccc2[C@H]2C(c3ccccc3)=NN(c3ccccc3)[C@H]2N1CC (some centres undefined) is 1.75

log10 IC50 on CEM cells HIV-1 protection, formazan growth assay for "Clc1ccc(-c2c(C3=NCCN3)nnn2-c2ccccc2)cc1" is 2.24

====

Each entry below carries its recorded pEC50.
- Tested on: CEM cells HIV-1 protection, formazan growth assay
- test_method_notes: NCI AIDS Antiviral Assay
pEC50: −log10 of the molar value.

| molecule | target_or_test_system | reported |
| --- | --- | --- |
| Fc1cccc(Cl)c1C1SCc2nc3cc4ccccc4cc3n21 (stereo not given) | CEM cells HIV-1 protection, formazan growth assay | < 3.70 |
| N#C/C(=C\c1ccccc1)c1cccc(F)c1 | CEM cells HIV-1 protection, formazan growth assay | < 3.70 |
| O=C(c1ccccc1)C1S(=O)(=O)OCCOS1(=O)=O | CEM cells HIV-1 protection, formazan growth assay | < 2.29 |

Noted for CC(C)N1CCCOC(c2ccc([N+](=O)[O-])cc2)O1 (stereo not given) : its pEC50 reads < 3.70

Noted for CC(C)CC1[C@@H](OCc2ccccc2)COS(=O)(=O)N1Cc1ccccc1 (stereo not given in full) : its pEC50 reads < 3.70

Noted for "O=C(CCCN1CCC(C(=O)c2ccc(F)cc2)CC1)c1ccc(F)cc1" : its pEC50 reads < 4.61

Noted for "C[Si]1(C)[Si](C)(C)[Si](C)(C)[Si](C)(C)[Si](C)(C)[Si]1(C)C" : its pEC50 reads < 4.54

Noted for C/C(=N\N)C(CN(C)C)C(c1ccccc1)c1c(O)c2ccccc2oc1=O (stereo not given) : its pEC50 reads < 4.06

Noted for CC(C)CCCC(C)[C@H]1CCC(C2C[C@@H](O)[C@@H]3CC(O)[C@@H](O)C[C@]3(CO)C2=O)[C@]1(C)CCO (stereo not given in full) : its pEC50 reads < 3.70

Noted for O=C1c2ccccc2C(=O)N1N1CC1c1ccccc1 (stereo not given) : its pEC50 reads < 3.70

====

Each entry below carries its recorded pIC50.
- System: CEM cells HIV-1 protection, formazan growth assay
- test_method_notes: NCI AIDS Antiviral Assay
- details: measured here: growth of uninfected CEM cells
In textbook form, pIC50 equals minus log to base ten of the concentration in mol/L.

| molecule | pIC50 |
| --- | --- |
| COC(=O)n1c(=O)nc2c3c(ncn21)Oc1c(c(-c2ccccc2)nn1-c1ccccc1)C3c1ccc(Cl)cc1 (stereo not given) | 5.63 |

Continue with the next molecule.
Noted for CN1CCC(O)(c2ccc(F)cc2)C(C(=O)c2ccc(F)cc2)C1 (stereo not given) : its pIC50 reads 4.14

====

- Tested on: CEM cells HIV-1 protection, formazan growth assay
- test_method_notes: NCI AIDS Antiviral Assay
- details: measured here: growth of uninfected CEM cells
Each entry below carries its recorded log10 of IC50.
Form field - Quantity: IC50; Unit: µM; Scale: log10

Observe how each entry below is paired with its result.
| molecule | measured_property | reported |
| --- | --- | --- |
| N=C(N)SC(c1ccccc1)C(O)c1ccccc1 (stereo unspecified) | log10 of IC50 | 1.96 |
| ON=C1/C(=N\O)CCC/C1=N/O | log10 of IC50 | 1.28 |
| O=C(OC1=CCN(Br)C1=O)C1=C(O)C(=O)N(Br)C1 | log10 of IC50 | 1.51 |
| COc1cc(COC(=O)N2CCCCC2C(=O)O)c([N+](=O)[O-])cc1OC (stereo unspecified) | log10 of IC50 | 2.66 |

Noted for "COc1ccc(NC(=O)/C(=C/N2C(=O)/C(=C/c3ccc(OC)c(OC)c3)NC2=S)C(C)=O)cc1" : its log10 of IC50 reads 1.37

Noted for "O=[N+]([O-])/C(Cl)=C(\NCCN/C(C(Cl)=C(Cl)Cl)=C(/Cl)[N+](=O)[O-])C(Cl)=C(Cl)Cl" : its log10 of IC50 reads 1.79

Noted for "C=C(CN(C)C)C(=O)c1ccc(C)cc1C" : its log10 of IC50 reads 1.07

Noted for "CCOC(=O)c1c(N)sc2c1CCCC2" : its log10 of IC50 reads 1.75

====

- Tested on: CEM cells HIV-1 protection, formazan growth assay
- test_method_notes: NCI AIDS Antiviral Assay
- details: measured here: growth of uninfected CEM cells
measured_property: pIC50
In textbook form, pIC50 equals minus log to base ten of the concentration in mol/L.

Observe how each entry below is paired with its result.
| compound | target_or_test_system | measured_property | reported |
| --- | --- | --- | --- |
| CCCN1CC=C(c2cc(C(=O)OCC)[nH]c2-c2cc(C)no2)C1=O | CEM cells HIV-1 protection, formazan growth assay | pIC50 | 3.97 |
| O=C1C=CC=C/C1=C1\N=C(c2ccccc2OCC(=O)c2ccccc2)SS1 | CEM cells HIV-1 protection, formazan growth assay | pIC50 | 5.37 |

pIC50 on CEM cells HIV-1 protection, formazan growth assay for "C=C1N(S(=O)(=O)c2ccc(C)cc2)C(=O)OCC12CCCC2" is 4.35

pIC50 on CEM cells HIV-1 protection, formazan growth assay for "O=[N+]([O-])C(/C=C(\Cl)[N+](=O)[O-])=C(N1CCCCC1)N1CCCCC1" is 4.12

pIC50 on CEM cells HIV-1 protection, formazan growth assay for "CC(C)(C)[Si](C)(C)OC[C@H]1O[C@@H](n2ccc(=O)[nH]c2=O)C[C@]12CCN(O)CO2" is 3.98

pIC50 on CEM cells HIV-1 protection, formazan growth assay for "Cc1c(N2C(=O)/C(=C/c3ccc(N(CCC#N)CCC#N)cc3)N=C2c2ccccc2)c(=O)n(-c2ccccc2)n1C" is 3.73

pIC50 on CEM cells HIV-1 protection, formazan growth assay for COc1cc(C2c3cc4c(cc3OC(NNC(N)=O)C2C)OCO4)cc(OC)c1O (configuration not stated) is 6.28

pIC50 on CEM cells HIV-1 protection, formazan growth assay for CCOC(=O)c1ccc(CS(=O)c2ccccc2)c([N+](=O)[O-])c1 (configuration not stated) is 5.46

pIC50 on CEM cells HIV-1 protection, formazan growth assay for COC(=O)C(Cc1ccccc1)NC(=O)CCCNC(=O)OCc1ccccc1 (configuration not stated) is 4.06

pIC50 on CEM cells HIV-1 protection, formazan growth assay for Oc1ccccc1C(c1cc2c(cc1O)OCO2)N1CCOCC1 (configuration not stated) is 4.96

Just for reference, PubChem BioAssay AID179 is where these values come from.
